Target: UniProtKB Q9NR97
Sequence (Q9NR97 27-1041): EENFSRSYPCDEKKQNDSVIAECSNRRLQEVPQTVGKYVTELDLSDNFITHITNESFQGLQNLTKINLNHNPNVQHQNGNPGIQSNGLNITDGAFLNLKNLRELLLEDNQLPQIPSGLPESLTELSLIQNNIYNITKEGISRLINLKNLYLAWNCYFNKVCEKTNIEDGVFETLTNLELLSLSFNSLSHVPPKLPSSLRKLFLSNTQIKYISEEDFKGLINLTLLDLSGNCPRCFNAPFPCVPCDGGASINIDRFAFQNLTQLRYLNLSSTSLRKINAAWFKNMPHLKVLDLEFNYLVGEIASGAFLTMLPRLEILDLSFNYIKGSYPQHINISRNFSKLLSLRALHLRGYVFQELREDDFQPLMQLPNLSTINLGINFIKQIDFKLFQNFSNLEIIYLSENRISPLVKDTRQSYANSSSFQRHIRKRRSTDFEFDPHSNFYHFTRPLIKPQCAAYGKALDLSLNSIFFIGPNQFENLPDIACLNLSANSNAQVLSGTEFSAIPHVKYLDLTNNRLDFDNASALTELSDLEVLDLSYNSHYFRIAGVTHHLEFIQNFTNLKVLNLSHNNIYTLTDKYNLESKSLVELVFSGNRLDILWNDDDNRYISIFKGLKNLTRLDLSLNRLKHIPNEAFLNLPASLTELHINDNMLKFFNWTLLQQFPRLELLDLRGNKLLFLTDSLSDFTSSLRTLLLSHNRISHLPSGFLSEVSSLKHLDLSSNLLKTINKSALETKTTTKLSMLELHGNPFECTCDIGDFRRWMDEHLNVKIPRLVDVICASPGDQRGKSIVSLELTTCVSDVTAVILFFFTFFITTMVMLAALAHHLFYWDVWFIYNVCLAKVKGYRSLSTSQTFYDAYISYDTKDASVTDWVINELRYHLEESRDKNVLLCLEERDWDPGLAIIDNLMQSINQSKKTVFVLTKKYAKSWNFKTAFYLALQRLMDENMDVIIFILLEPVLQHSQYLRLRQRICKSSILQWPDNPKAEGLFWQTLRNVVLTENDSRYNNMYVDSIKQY
Experiment: HEK293-Blue-hTLR-8 cells assay (SEAP reporter, R848 stimulation)
Conditions: HEK293-Blue-hTLR8 cells, R848, 20 hrs
pIC50: −log10 of the molar value.
PROPERTY NAME: pIC50

Before answering, review these 3 worked examples.
C[C@H]1C[C@@H](N)CN(c2ccc(Cl)c3ncccc23)C1 [Example 23]	8.40
C[C@@H]1CN(c2ccc(C(F)(F)F)c3ncccc23)C[C@H](C(=O)NC2CC3CCCC(C2)N3)O1 (single isomer, unassigned) [Example 34A]	> 8.52
C[C@@H]1CN(c2ccc(I)c3ncccc23)C[C@H](C(=O)NC2CCN(C)CC2)O1 [Example 38]	> 8.52

Now for another entry.
// query Using known records, supply pIC50 for C[C@@H]1CN(c2ccc(C(F)(F)F)c3ncccc23)C[C@H](C(=O)NC2CC3COCC(C2)N3)O1 (stereo partly shown) [Example 33]
// result > 8.52
